# Experimental Target: (His)6-tagged Ubp-M BUZ domain (UniProt Q9Y5T5 22-143)
# Sequence (Q9Y5T5 22-143): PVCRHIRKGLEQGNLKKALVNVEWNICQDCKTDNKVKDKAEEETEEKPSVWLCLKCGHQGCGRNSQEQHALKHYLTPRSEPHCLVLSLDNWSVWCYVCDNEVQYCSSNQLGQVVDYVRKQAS
# Procedure Details: fluorescence polarisation
The star is where a group is joined. FITC = O=C1OC2(c3ccc(O)cc3Oc3cc(O)ccc32)c2ccc(NC(=S)*)cc21; βAla = NCCC(=O)O
I'd appreciate it if you could supply pKd values for the items below.
Give bare numbers, as −log10 of the molar value.

{"Binder": "{FITC-βAla-βAla}-RGMGG-OH (SMILES CSCC[C@H](NC(=O)CNC(=O)[C@H](CCCNC(=N)N)NC(=O)CCNC(=O)CCNC(=S)Nc1ccc2c(c1)C(=O)OC21c2ccc(O)cc2Oc2cc(O)ccc21)C(=O)NCC(=O)NCC(=O)O) [FITC-β-Ala-β-Ala-RGMGG]", "pKd": 4.77}

Each binder below has a reported value. Please supply its pKd.
1. {FITC-βAla-βAla}-YGFGG-OH (SMILES O=C(O)CNC(=O)CNC(=O)[C@H](Cc1ccccc1)NC(=O)CNC(=O)[C@H](Cc1ccc(O)cc1)NC(=O)CCNC(=O)CCNC(=S)Nc1ccc2c(c1)C(=O)OC21c2ccc(O)cc2Oc2cc(O)ccc21) [FITC-β-Ala-β-Ala-YGFGG]
2. {FITC-βAla-βAla}-NALGG-OH (SMILES CC(C)C[C@H](NC(=O)[C@H](C)NC(=O)[C@H](CC(N)=O)NC(=O)CCNC(=O)CCNC(=S)Nc1ccc2c(c1)C(=O)OC21c2ccc(O)cc2Oc2cc(O)ccc21)C(=O)NCC(=O)NCC(=O)O) [FITC-β-Ala-β-Ala-NALGG]
3. {FITC-βAla-βAla}-IAKGG-OH (SMILES CC[C@H](C)[C@H](NC(=O)CCNC(=O)CCNC(=S)Nc1ccc2c(c1)C(=O)OC21c2ccc(O)cc2Oc2cc(O)ccc21)C(=O)N[C@@H](C)C(=O)N[C@@H](CCCCN)C(=O)NCC(=O)NCC(=O)O) [FITC-β-Ala-β-Ala-IAKGG]

Result block:
4.89
4.48
4.92
